experimental details: activity coefficient (dimensionless); of the first substance listed, at infinite dilution; xn = mol fraction of the nth substance listed
run parameters: 343.15 K; Liquid; Chromatography; x1 = 0
Please assign Criterion not met whenever activity coefficient is at or above 1, and Criterion met whenever it is below.

| molecule | group label |
| --- | --- |
| CCO [ethanol] + CCCCCCCCn1cc[n+](COCCCOC[n+]2ccn(CCCCCCCC)c2C)c1C.O=S(=O)([N-]S(=O)(=O)C(F)(F)F)C(F)(F)F.O=S(=O)([N-]S(=O)(=O)C(F)(F)F)C(F)(F)F | Criterion met |
| c1ccncc1 [pyridine] + CCCCCCCCn1cc[n+](COCCCOC[n+]2ccn(CCCCCCCC)c2C)c1C.O=S(=O)([N-]S(=O)(=O)C(F)(F)F)C(F)(F)F.O=S(=O)([N-]S(=O)(=O)C(F)(F)F)C(F)(F)F | Criterion met |
| CC(C)O [propan-2-ol] + CCCCCCCCn1cc[n+](COCCCOC[n+]2ccn(CCCCCCCC)c2C)c1C.O=S(=O)([N-]S(=O)(=O)C(F)(F)F)C(F)(F)F.O=S(=O)([N-]S(=O)(=O)C(F)(F)F)C(F)(F)F | Criterion met |
| CCCCCCCCCCCC [dodecane] + CCCCCCCCn1cc[n+](COCCCOC[n+]2ccn(CCCCCCCC)c2C)c1C.N#C[N-]C#N.N#C[N-]C#N | Criterion not met |
| CCCCCC [hexane] + CN(C)c1cc[n+](COCCCOC[n+]2ccc(N(C)C)cc2)cc1.O=S(=O)([N-]S(=O)(=O)C(F)(F)F)C(F)(F)F.O=S(=O)([N-]S(=O)(=O)C(F)(F)F)C(F)(F)F | Criterion not met |
| CCCCCCCCCCCCC [tridecane] + CCCOC[n+]1ccc(N(C)C)cc1.O=S(=O)([N-]S(=O)(=O)C(F)(F)F)C(F)(F)F | Criterion not met |
| C[N+](=O)[O-] [nitromethane] + CCCOC[n+]1ccn(C)c1.N#C[N-]C#N | Criterion met |
| CCCCO [butan-1-ol] + CCCCCCCCn1cc[n+](COCCC)c1C.O=S(=O)([N-]S(=O)(=O)C(F)(F)F)C(F)(F)F | Criterion not met |
| CCc1ccccc1 [ethylbenzene] + CCCCCCCCn1cc[n+](COCCC)c1C.N#C[N-]C#N | Criterion not met |
| CCCCO [butan-1-ol] + CCCOC[n+]1ccc(N(C)C)cc1.O=S(=O)([N-]S(=O)(=O)C(F)(F)F)C(F)(F)F | Criterion not met |
| CCO [ethanol] + CCCOC[n+]1ccc(N(C)C)cc1.O=S(=O)([N-]S(=O)(=O)C(F)(F)F)C(F)(F)F | Criterion not met |

---

experimental details: activity coefficient (dimensionless); of the first substance listed, at infinite dilution; xn = mol fraction of the nth substance listed
run parameters: 323.15 K; Liquid; Chromatography; x1 = 0
So basically every entry gets a class from its activity coefficient, ranges being lowest = under 2, middle = from 2 up to 9, highest = 9 and over

| molecule | group label |
| --- | --- |
| C#CCCCC [1-hexyne] + Cn1cc[n+](COCCCOC[n+]2ccn(C)c2)c1.N#C[N-]C#N.N#C[N-]C#N | highest |
| CCC(=O)CC [pentan-3-one] + N#C[N-]C#N.N#C[N-]C#N.c1ccc(Cn2cc[n+](COCCCOC[n+]3ccn(Cc4ccccc4)c3)c2)cc1 | middle |
| C1COCCO1 [1,4-dioxane] + CCCOC[n+]1ccn(C)c1.F[B-](F)(F)F | lowest |
| CCCCCCC [heptane] + CCCOC[n+]1ccn(C)c1.O=S(=O)([N-]S(=O)(=O)C(F)(F)F)C(F)(F)F | highest |
| Cc1cccc(C)c1 [1,3-dimethylbenzene] + CCCCCCCCn1cc[n+](COCCC)c1C.N#C[N-]C#N | lowest |
| C#CCCCC [1-hexyne] + CCCCCCCCn1cc[n+](COCCCOC[n+]2ccn(CCCCCCCC)c2C)c1C.O=S(=O)([N-]S(=O)(=O)C(F)(F)F)C(F)(F)F.O=S(=O)([N-]S(=O)(=O)C(F)(F)F)C(F)(F)F | lowest |
| CCCO [propan-1-ol] + CCCCCCCCn1cc[n+](COCCCOC[n+]2ccn(CCCCCCCC)c2C)c1C.N#C[N-]C#N.N#C[N-]C#N | lowest |
| CCCCCCCC [octane] + CCCOC[n+]1ccn(Cc2ccccc2)c1.O=S(=O)([N-]S(=O)(=O)C(F)(F)F)C(F)(F)F | highest |
| CCCCCCCCC [nonane] + CCCOC[n+]1ccn(C)c1.O=S(=O)([N-]S(=O)(=O)C(F)(F)F)C(F)(F)F | highest |
| C#CCCCC [1-hexyne] + Cn1cc[n+](COCCCOC[n+]2ccn(C)c2)c1.O=S(=O)([N-]S(=O)(=O)C(F)(F)F)C(F)(F)F.O=S(=O)([N-]S(=O)(=O)C(F)(F)F)C(F)(F)F | middle |
| CC1CCCCC1 [methylcyclohexane] + CCCOC[n+]1ccc(N(C)C)cc1.O=S(=O)([N-]S(=O)(=O)C(F)(F)F)C(F)(F)F | highest |
| CCC[N+](=O)[O-] [1-nitropropane] + CCCCCCCCn1cc[n+](COCCCOC[n+]2ccn(CCCCCCCC)c2C)c1C.O=S(=O)([N-]S(=O)(=O)C(F)(F)F)C(F)(F)F.O=S(=O)([N-]S(=O)(=O)C(F)(F)F)C(F)(F)F | lowest |
| C#CCCCCC [1-heptyne] + CCCOC[n+]1ccn(Cc2ccccc2)c1.N#C[N-]C#N | middle |

---

Recorded measurements of activity coefficient, one per entry
experimental details: activity coefficient (dimensionless); of the first substance listed, at infinite dilution; xn = mol fraction of the nth substance listed
run parameters: 323.15 K; Liquid; Chromatography; x1 = 0

| molecule | activity coefficient |
| --- | --- |
| CCN(CC)CC [triethylamine] + CCCOC[n+]1ccn(C)c1.N#C[N-]C#N | 10.3 |
| CCCO [propan-1-ol] + CCCCCCCCn1cc[n+](COCCC)c1C.N#C[N-]C#N | 0.4 |
| CC1CCCCC1 [methylcyclohexane] + CCCOC[n+]1ccn(C)c1.N#C[N-]C#N | 44.3 |
| CCCO [propan-1-ol] + CCCOC[n+]1ccn(Cc2ccccc2)c1.F[B-](F)(F)F | 2.15 |
| c1ccsc1 [thiophene] + N#C[N-]C#N.N#C[N-]C#N.c1ccc(Cn2cc[n+](COCCCOC[n+]3ccn(Cc4ccccc4)c3)c2)cc1 | 1.7 |
| CCCC(C)=O [pentan-2-one] + Cn1cc[n+](COCCCOC[n+]2ccn(C)c2)c1.O=S(=O)([N-]S(=O)(=O)C(F)(F)F)C(F)(F)F.O=S(=O)([N-]S(=O)(=O)C(F)(F)F)C(F)(F)F | 0.62 |
| C1CCCCCC1 [cycloheptane] + CCCOC[n+]1ccn(C)c1.O=S(=O)([N-]S(=O)(=O)C(F)(F)F)C(F)(F)F | 27.2 |
| CC(C)O [propan-2-ol] + CCCOC[n+]1ccn(C)c1.F[B-](F)(F)F | 2.91 |
| CC(C)OC(C)C [diisopropyl ether] + CCCCCCCCn1cc[n+](COCCCOC[n+]2ccn(CCCCCCCC)c2C)c1C.O=S(=O)([N-]S(=O)(=O)C(F)(F)F)C(F)(F)F.O=S(=O)([N-]S(=O)(=O)C(F)(F)F)C(F)(F)F | 1.54 |
| CCC(=O)CC [pentan-3-one] + CCCOC[n+]1ccn(Cc2ccccc2)c1.N#C[N-]C#N | 1.33 |
| ClC(Cl)Cl [trichloromethane] + CCCCCCCCn1cc[n+](COCCCOC[n+]2ccn(CCCCCCCC)c2C)c1C.O=S(=O)([N-]S(=O)(=O)C(F)(F)F)C(F)(F)F.O=S(=O)([N-]S(=O)(=O)C(F)(F)F)C(F)(F)F | 0.39 |
| CCCCCCCC [octane] + Cn1cc[n+](COCCCOC[n+]2ccn(C)c2)c1.O=S(=O)([N-]S(=O)(=O)C(F)(F)F)C(F)(F)F.O=S(=O)([N-]S(=O)(=O)C(F)(F)F)C(F)(F)F | 60.4 |
| Cc1ccccc1C [1,2-dimethylbenzene] + CCCCCCCCn1cc[n+](COCCC)c1C.O=S(=O)([N-]S(=O)(=O)C(F)(F)F)C(F)(F)F | 0.94 |

---

experimental details: activity coefficient (dimensionless); of the first substance listed, at infinite dilution; xn = mol fraction of the nth substance listed
run parameters: 333.15 K; Liquid; Chromatography; x1 = 0
quantity kind: activity coefficient

| molecule | recorded value |
| --- | --- |
| Cc1cccc(C)c1 [1,3-dimethylbenzene] + CCCOC[n+]1ccc(N(C)C)cc1.O=S(=O)([N-]S(=O)(=O)C(F)(F)F)C(F)(F)F | 1.47 |
| CCCCCCCCCCC [undecane] + CN(C)c1cc[n+](COCCCOC[n+]2ccc(N(C)C)cc2)cc1.O=S(=O)([N-]S(=O)(=O)C(F)(F)F)C(F)(F)F.O=S(=O)([N-]S(=O)(=O)C(F)(F)F)C(F)(F)F | 99 |
| CCC[N+](=O)[O-] [1-nitropropane] + N#C[N-]C#N.N#C[N-]C#N.c1ccc(Cn2cc[n+](COCCCOC[n+]3ccn(Cc4ccccc4)c3)c2)cc1 | 1.73 |
